Target: T1, OmpF porin trimer (outer-membrane protein F) (Escherichia coli, UniProt P02931 23-362)
T1 sequence (looked up): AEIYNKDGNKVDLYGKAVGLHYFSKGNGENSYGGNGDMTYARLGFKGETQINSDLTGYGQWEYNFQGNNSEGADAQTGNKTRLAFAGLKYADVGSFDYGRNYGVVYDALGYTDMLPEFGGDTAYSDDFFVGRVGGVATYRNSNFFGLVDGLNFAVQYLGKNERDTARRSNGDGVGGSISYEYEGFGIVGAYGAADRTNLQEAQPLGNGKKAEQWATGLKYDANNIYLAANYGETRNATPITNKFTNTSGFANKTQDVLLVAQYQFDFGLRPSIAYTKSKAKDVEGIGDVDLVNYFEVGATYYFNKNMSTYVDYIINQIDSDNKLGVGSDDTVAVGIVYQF
Assay: single-channel electrical recording in planar lipid bilayer; single OmpF trimer in a DPhPC bilayer; free peptide added to the extracellular (cis) side, negative potentials; constants of Table 1 extrapolated to 0 mV, Kd for a single OmpF subunit; 20 mM potassium phosphate pH 6.4, 0.1 M KCl, 20.5 °C
Settings: both partners purified
property.name: Kd (mM)

# binder, observed
records = [
    ("Ac-IHWGGGSGRG-NH2 [OBS2_(54-63) peptide (acetyl-OBS2_(54-63)-CONH2)]", 11),
]
